Biological target: Muscarinic acetylcholine receptor M3 (Cavia porcellus)
Sequence (Q8VH26 whole entry): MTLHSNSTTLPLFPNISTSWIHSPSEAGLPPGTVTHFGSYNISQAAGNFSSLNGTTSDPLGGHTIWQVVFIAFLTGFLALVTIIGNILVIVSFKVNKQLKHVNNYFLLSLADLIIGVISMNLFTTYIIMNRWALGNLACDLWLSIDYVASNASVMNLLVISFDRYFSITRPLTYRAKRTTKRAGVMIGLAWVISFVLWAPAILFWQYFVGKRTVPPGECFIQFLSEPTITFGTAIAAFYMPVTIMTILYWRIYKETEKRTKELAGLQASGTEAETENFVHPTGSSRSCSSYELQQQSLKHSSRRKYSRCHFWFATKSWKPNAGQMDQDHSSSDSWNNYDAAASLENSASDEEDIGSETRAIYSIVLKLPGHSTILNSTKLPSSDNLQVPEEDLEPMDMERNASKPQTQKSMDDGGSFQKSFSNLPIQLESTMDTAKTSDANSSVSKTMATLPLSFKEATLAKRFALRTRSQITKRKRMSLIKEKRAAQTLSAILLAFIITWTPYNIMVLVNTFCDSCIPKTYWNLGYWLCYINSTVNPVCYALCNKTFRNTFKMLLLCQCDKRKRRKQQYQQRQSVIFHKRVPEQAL
Assay: Compound was evaluated for its binding affinity against Muscarinic acetylcholine receptor M3 in guinea pig parotid gland using (-)-[3H]-QNB as radioligand
Format: tissue-based
pKi: −log10 of the molar value.
measurement_label: pKi

smiles_text: C[C@H]1C[C@@]2(CO1)CN1CCC2CC1
measurement_label: pKi
numeric_value: 4.59
--
smiles_text: C[C@@H]1CC[C@@]2(CN3CCC2CC3)O1
measurement_label: pKi
numeric_value: 4.11

Sourced from ChEMBL document CHEMBL1126289
